FYI, the data here is from PubChem BioAssay AID1963437.

test system: OVCAR-8 complex spheroid, growth inhibition; experiment: Anticancer human tumor OVCAR-8 cell line growth inhibition [Asc]; details: second compound 0.0316 µM; first compound 0.00949 µM; stronger effect = lower value;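 further: spheroids exposed to agents for 7 days before readout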;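 on viability, T/C: percent viability relative to DMSO vehicle wells taken as 100%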
READOUT_NAME: viability, T/C (%)
Report only the number, with the unit % understood.

(Q) Any idea what its viability, T/C is? The compound is NC(=O)C(=Cn1cnc(-c2cc(C(F)(F)F)cc(C(F)(F)F)c2)n1)c1cncnc1 + CNC(C)C(=O)NC1CN(S(=O)(=O)c2cccc(S(=O)(=O)N3CCC4CCC(C(=O)NC(c5ccccc5)c5ccccc5)N4C(=O)C(NC(=O)C(C)NC)C3)c2)CCC2CCC(C(=O)NC(c3ccccc3)c3ccccc3)N2C1=O
(A) 112

(Q) Same again, this time with NC(=O)C(=Cn1cnc(-c2cc(C(F)(F)F)cc(C(F)(F)F)c2)n1)c1cncnc1 + Cc1c(S(C)(=O)=O)c(-c2cc(F)cc(N3CCN(c4ccc(NS(=O)(=O)c5ccc(NC(CCN6CCC(C(=O)OCCCP(=O)(O)O)CC6)CSc6ccccc6)c(S(=O)(=O)C(F)(F)F)c5)cc4)CC3)c2)c(-c2ccc(Cl)cc2)n1C(C)C
(A) 103

(Q) Same again, this time with Cc1nc(N2CCC3(CC2)COC(C)C3N)c(CO)nc1Sc1ccnc(N)c1Cl (centres undefined) + CNC(C)C(=O)NC1CN(S(=O)(=O)c2cccc(S(=O)(=O)N3CCC4CCC(C(=O)NC(c5ccccc5)c5ccccc5)N4C(=O)C(NC(=O)C(C)NC)C3)c2)CCC2CCC(C(=O)NC(c3ccccc3)c3ccccc3)N2C1=O
(A) 93

(Q) Same again, this time with CCN1C(C(=O)NC23CCC(C(=O)O)(CC2)CC3)C(c2cccc(Cl)c2F)C2(C(=O)Nc3cc(Cl)ccc32)C12CCCCC2 (centres undefined) + Cc1c(S(C)(=O)=O)c(-c2cc(F)cc(N3CCN(c4ccc(NS(=O)(=O)c5ccc(NC(CCN6CCC(C(=O)OCCCP(=O)(O)O)CC6)CSc6ccccc6)c(S(=O)(=O)C(F)(F)F)c5)cc4)CC3)c2)c(-c2ccc(Cl)cc2)n1C(C)C
(A) 92.4

* * *

system: OVCAR-8 complex spheroid, growth inhibition; assay: Anticancer human tumor OVCAR-8 cell line growth inhibition [Asc]; details: second compound 0.0949 µM; first compound 0.0316 µM; stronger effect = lower value;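 further: spheroids exposed to agents for 7 days before readout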;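 on viability, T/C: percent viability relative to DMSO vehicle wells taken as 100%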
READOUT_NAME: viability, T/C (%)
Report only the number, with the unit % understood.

(Q) Any idea what its viability, T/C is? The molecule is C#Cc1c(F)ccc2cc(O)cc(-c3ncc4c(N5CC6CCC(C5)N6)nc(OCC56CCCN5CC(F)C6)nc4c3F)c12 (stereo not given) + CCN1C(C(=O)NC23CCC(C(=O)O)(CC2)CC3)C(c2cccc(Cl)c2F)C2(C(=O)Nc3cc(Cl)ccc32)C12CCCCC2
(A) 93.2

(Q) Same again, this time with NC1CCC(NC2CC2c2ccccc2)CC1 (stereo not given) + CCN1C(C(=O)NC23CCC(C(=O)O)(CC2)CC3)C(c2cccc(Cl)c2F)C2(C(=O)Nc3cc(Cl)ccc32)C12CCCCC2
(A) 98.5

(Q) Same again, this time with C=C(F)C(=O)N1CCN(c2nc(OCC3CCCN3C)nc3c2CCN(c2cccc4cccc(Cl)c24)C3)CC1CC#N (stereo not given) + CCN1C(C(=O)NC23CCC(C(=O)O)(CC2)CC3)C(c2cccc(Cl)c2F)C2(C(=O)Nc3cc(Cl)ccc32)C12CCCCC2
(A) 93.1

(Q) Same again, this time with O=C(c1ccc(F)c(F)c1Nc1ccc(I)cc1F)N1CC(O)([C@@H]2CCCCN2)C1 + CCN1C(C(=O)NC23CCC(C(=O)O)(CC2)CC3)C(c2cccc(Cl)c2F)C2(C(=O)Nc3cc(Cl)ccc32)C12CCCCC2
(A) 122

(Q) Same again, this time with Cn1ncnc1[C@H]1c2n[nH]c(=O)c3cc(F)cc(c23)N[C@@H]1c1ccc(F)cc1 + CCN1C(C(=O)NC23CCC(C(=O)O)(CC2)CC3)C(c2cccc(Cl)c2F)C2(C(=O)Nc3cc(Cl)ccc32)C12CCCCC2
(A) 127

(Q) Same again, this time with CCN1CCN(Cc2ccc(Nc3ncc(F)c(-c4cc(F)c5nc(C)n(C(C)C)c5c4)n3)nc2)CC1 + CCN1C(C(=O)NC23CCC(C(=O)O)(CC2)CC3)C(c2cccc(Cl)c2F)C2(C(=O)Nc3cc(Cl)ccc32)C12CCCCC2
(A) 89.8

(Q) Same again, this time with COc1c(OCCCN2CCOCC2)ccc2c3n(c(=NC(=O)c4cnc(N)nc4)nc12)CCN3 + CCN1C(C(=O)NC23CCC(C(=O)O)(CC2)CC3)C(c2cccc(Cl)c2F)C2(C(=O)Nc3cc(Cl)ccc32)C12CCCCC2
(A) 117

(Q) Same again, this time with C=CC(=O)N1CCN(c2nc(=O)n(-c3c(C)ccnc3C(C)C)c3nc(-c4c(O)cccc4F)c(F)cc23)C(C)C1 (stereo not given) + CCN1C(C(=O)NC23CCC(C(=O)O)(CC2)CC3)C(c2cccc(Cl)c2F)C2(C(=O)Nc3cc(Cl)ccc32)C12CCCCC2
(A) 101

(Q) Same again, this time with CNC(C)C(=O)NC1CN(S(=O)(=O)c2cccc(S(=O)(=O)N3CCC4CCC(C(=O)NC(c5ccccc5)c5ccccc5)N4C(=O)C(NC(=O)C(C)NC)C3)c2)CCC2CCC(C(=O)NC(c3ccccc3)c3ccccc3)N2C1=O (stereo not given) + CCN1C(C(=O)NC23CCC(C(=O)O)(CC2)CC3)C(c2cccc(Cl)c2F)C2(C(=O)Nc3cc(Cl)ccc32)C12CCCCC2
(A) 90.9

(Q) Same again, this time with O=C(c1cc(Cc2n[nH]c(=O)c3ccccc23)ccc1F)N1CCN(C(=O)C2CC2)CC1 + CCN1C(C(=O)NC23CCC(C(=O)O)(CC2)CC3)C(c2cccc(Cl)c2F)C2(C(=O)Nc3cc(Cl)ccc32)C12CCCCC2
(A) 101

* * *

system: OVCAR-8 complex spheroid, growth inhibition; experiment: Anticancer human tumor OVCAR-8 cell line growth inhibition [Asc]; conditions: curve of first compound; second compound 0.01 µM;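 further: spheroids exposed to agents for 7 days before readout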
Kindly supply the reported IC50 values for the records listed here.

(Q) Hi! What's the reported IC50 for NC1CCC(NC2CC2c2ccccc2)CC1 (configuration not stated) + CNC(C)C(=O)NC1CN(S(=O)(=O)c2cccc(S(=O)(=O)N3CCC4CCC(C(=O)NC(c5ccccc5)c5ccccc5)N4C(=O)C(NC(=O)C(C)NC)C3)c2)CCC2CCC(C(=O)NC(c3ccccc3)c3ccccc3)N2C1=O on OVCAR-8 complex spheroid, growth inhibition?
(A) > 0.1 µM

(Q) Same again, this time with C#Cc1c(F)ccc2cc(O)cc(-c3ncc4c(N5CC6CCC(C5)N6)nc(OCC56CCCN5CC(F)C6)nc4c3F)c12 (configuration not stated) + CNC(C)C(=O)NC1CN(S(=O)(=O)c2cccc(S(=O)(=O)N3CCC4CCC(C(=O)NC(c5ccccc5)c5ccccc5)N4C(=O)C(NC(=O)C(C)NC)C3)c2)CCC2CCC(C(=O)NC(c3ccccc3)c3ccccc3)N2C1=O
(A) > 10 µM

(Q) Same again, this time with CCN1CCN(Cc2ccc(Nc3ncc(F)c(-c4cc(F)c5nc(C)n(C(C)C)c5c4)n3)nc2)CC1 + CNC(C)C(=O)NC1CN(S(=O)(=O)c2cccc(S(=O)(=O)N3CCC4CCC(C(=O)NC(c5ccccc5)c5ccccc5)N4C(=O)C(NC(=O)C(C)NC)C3)c2)CCC2CCC(C(=O)NC(c3ccccc3)c3ccccc3)N2C1=O
(A) > 1 µM

(Q) Same again, this time with O=C(c1ccc(F)c(F)c1Nc1ccc(I)cc1F)N1CC(O)([C@@H]2CCCCN2)C1 + CNC(C)C(=O)NC1CN(S(=O)(=O)c2cccc(S(=O)(=O)N3CCC4CCC(C(=O)NC(c5ccccc5)c5ccccc5)N4C(=O)C(NC(=O)C(C)NC)C3)c2)CCC2CCC(C(=O)NC(c3ccccc3)c3ccccc3)N2C1=O
(A) > 1 µM

(Q) Same again, this time with Cn1ncnc1[C@H]1c2n[nH]c(=O)c3cc(F)cc(c23)N[C@@H]1c1ccc(F)cc1 + CNC(C)C(=O)NC1CN(S(=O)(=O)c2cccc(S(=O)(=O)N3CCC4CCC(C(=O)NC(c5ccccc5)c5ccccc5)N4C(=O)C(NC(=O)C(C)NC)C3)c2)CCC2CCC(C(=O)NC(c3ccccc3)c3ccccc3)N2C1=O
(A) > 0.1 µM

(Q) Same again, this time with C=CC(=O)N1CCN(c2nc(=O)n(-c3c(C)ccnc3C(C)C)c3nc(-c4c(O)cccc4F)c(F)cc23)C(C)C1 (configuration not stated) + CNC(C)C(=O)NC1CN(S(=O)(=O)c2cccc(S(=O)(=O)N3CCC4CCC(C(=O)NC(c5ccccc5)c5ccccc5)N4C(=O)C(NC(=O)C(C)NC)C3)c2)CCC2CCC(C(=O)NC(c3ccccc3)c3ccccc3)N2C1=O
(A) > 10 µM

(Q) Same again, this time with O=C(c1cc(Cc2n[nH]c(=O)c3ccccc23)ccc1F)N1CCN(C(=O)C2CC2)CC1 + CNC(C)C(=O)NC1CN(S(=O)(=O)c2cccc(S(=O)(=O)N3CCC4CCC(C(=O)NC(c5ccccc5)c5ccccc5)N4C(=O)C(NC(=O)C(C)NC)C3)c2)CCC2CCC(C(=O)NC(c3ccccc3)c3ccccc3)N2C1=O
(A) > 10 µM
